Reference for the values: paper PMC9182007

Molecular target: human serum albumin (HSA) (Homo sapiens, UniProt P02768)
Sequence (P02768 25-609): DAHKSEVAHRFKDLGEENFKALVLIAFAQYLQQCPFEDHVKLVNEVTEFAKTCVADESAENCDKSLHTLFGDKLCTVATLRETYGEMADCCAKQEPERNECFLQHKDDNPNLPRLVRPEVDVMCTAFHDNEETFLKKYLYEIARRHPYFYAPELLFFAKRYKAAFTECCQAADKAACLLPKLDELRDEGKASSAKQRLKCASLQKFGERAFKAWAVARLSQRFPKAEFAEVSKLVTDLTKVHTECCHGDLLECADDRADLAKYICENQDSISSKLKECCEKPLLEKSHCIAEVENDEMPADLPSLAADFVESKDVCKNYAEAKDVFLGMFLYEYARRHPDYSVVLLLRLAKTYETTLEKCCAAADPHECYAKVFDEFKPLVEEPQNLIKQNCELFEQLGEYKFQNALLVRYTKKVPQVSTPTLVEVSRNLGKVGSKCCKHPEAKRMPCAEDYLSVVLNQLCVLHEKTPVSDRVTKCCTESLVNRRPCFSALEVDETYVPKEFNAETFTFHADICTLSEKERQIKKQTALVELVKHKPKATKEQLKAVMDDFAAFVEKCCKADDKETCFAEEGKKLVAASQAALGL
Experiment: in vitro
Conditions: immobilized hsa column, pH 7.4
attribute_measured: chromatographic logD
The answer should be written as a number, with no unit following it.

Please review the entries below; each comes with its answer.
COc1ccc(C(CN(C)C)C2(O)CCCCC2)cc1 (stereo not drawn) [venlafaxine]; 0.02
Cc1cc2c(s1)Nc1ccccc1N=C2N1CCN(C)CC1 [olanzapine]; 0.68
CO/N=C(\C(=O)N[C@@H]1C(=O)N2C(C(=O)O)=C(COC(N)=O)CS[C@H]12)c1ccco1 [cefuroxime]; -0.64
Cc1ccc(O)c([C@H](CCN(C(C)C)C(C)C)c2ccccc2)c1 [tolterodine]; 0.46
CC(C)C[C@H]1C(=O)N2CCC[C@H]2[C@]2(O)O[C@](NC(=O)[C@@H]3C=C4c5cccc6[nH]c(Br)c(c56)C[C@H]4N(C)C3)(C(C)C)C(=O)N12 [bromocriptine]; 0.91

## Input Need chromatographic logD, item CC(=O)OCC(=O)[C@@]1(O)CC[C@H]2[C@@H]3CCC4=CC(=O)CC[C@]4(C)[C@H]3[C@@H](O)C[C@@]21C [hydrocortisone acetate]
## Output -0.18

## Input // query chromatographic logD value for entry OC(CNCC(O)C1CCc2cc(F)ccc2O1)C1CCc2cc(F)ccc2O1 (stereo not drawn) [nebivolol]
## Output 0.87

## Input Item Cc1ccc(S(=O)(=O)NC(=O)NN2CC3CCCC3C2)cc1 (stereo not drawn) [gliclazide] has what recorded chromatographic logD?
## Output 0.99

## Input Given the compound OCCOCCN1CCN(C(c2ccccc2)c2ccc(Cl)cc2)CC1 (stereo not drawn) [hydroxyzine] , what is its reported chromatographic logD?
## Output 0.57

## Input Fill in the blank: the reported chromatographic logD of COc1ccccc1OCCNCC(O)COc1cccc2[nH]c3ccccc3c12 (stereo not drawn) [carvedilol] is ____.
## Output 1.16

## Input Look up chromatographic logD for this compound: CN(C)CCCN1c2ccccc2Sc2ccc(Cl)cc21 [chlorpromazine]
## Output 1.12

## Input // returns reported chromatographic logD for input CC(=O)S[C@@H]1CC2=CC(=O)CC[C@]2(C)[C@H]2CC[C@@]3(C)[C@@H](CC[C@@]34CCC(=O)O4)[C@H]12 [spironolactone]
## Output -0.09

* * *

Experiment: HPLC on immobilized artificial membrane column (HPLCIAM)
Assay type: physicochemical
Conditions: Table S5, retention factor, IAM column, phosphate buffer pH 7.4/acetonitrile 80:20
attribute_measured: k IAM

## Input Param item = Cc1ccc(-c2cc(C(F)(F)F)nn2-c2ccc(S(N)(=O)=O)cc2)cc1 ; retrieve measured k IAM.
## Output 50.01

## Input Please give the measured k IAM for this compound: CC(=O)[C@H]1CC[C@H]2[C@@H]3CCC4=CC(=O)CC[C@]4(C)[C@H]3CC[C@]12C
## Output 34.99

## Input Record request: k IAM value, item CC[C@H]1OC(=O)[C@H](C)[C@@H](O[C@H]2C[C@@](C)(OC)[C@@H](O)[C@H](C)O2)[C@H](C)[C@@H](O[C@@H]2O[C@H](C)C[C@H](N(C)C)[C@H]2O)[C@](C)(OC)C[C@@H](C)C(=O)[C@H](C)[C@@H](O)[C@]1(C)O
## Output 0.10

* * *

Molecular target: human serum albumin (HSA) (Homo sapiens, UniProt P02768)
Settings: Table S5, retention factor, HSA column, pH 7.4, 25 degrees Celsius
Output: class label from k HSA. Mapping: lower band: < 0.7; central band: ≥ 0.7 and < 6; upper band: ≥ 6

## Input Any idea which band CC(=O)Oc1ccccc1C(=O)O [acetylsalicylic acid] is in?
## Output lower band

* * *

Target: human serum albumin (HSA) (Homo sapiens, UniProt P02768)
Settings: human, immobilized hsa column, pH 7.4
Label rule, in plain words: log k HSA of 0.3 and up is Satisfied, under 0.3 is Not satisfied.

CN(C)CCc1c[nH]c2ccc(Cn3cncn3)cc12 [rizatriptan]; Satisfied
CC(C)NCC(O)COc1ccc(CCOCC2CC2)cc1 (centres unmarked) [betaxolol]; Not satisfied
OC(CCN1CCCCC1)(c1ccccc1)C1CC2C=CC1C2 (centres unmarked) [biperiden]; Not satisfied

## Input # check: log k HSA of CCOc1ccc(/C=C2\NCCc3cc(OCC)c(OCC)cc32)cc1OCC [drotaverine] is greater than or equal to 0.3
## Output Not satisfied

## Input Determine whether measured log k HSA meets or exceeds 0.3 for CN(C)CCCN1c2ccccc2Sc2ccccc21 [promazine]
## Output Satisfied

* * *

// reported CNP (Rf, control NP plate) for each item listed
Assay: NP TLC on non-impregnated control plates
Assay type: physicochemical
Conditions: Table S3, non-impregnated NP plate; acetonitrile/acetate buffer pH 7.4/methanol 60:20:20
// keep it numeric: no unit symbol after the value

These solved cases illustrate the format of a correct answer.
CC(=O)Oc1ccccc1C(=O)O [acetylsalicylic acid]; 0.89
C[C@]12C=CC(=O)C=C1CC[C@@H]1[C@@H]2[C@@H](O)C[C@@]2(C)[C@H]1CC[C@]2(O)C(=O)CO [prednizolone]; 0.94
CC[C@H]1OC(=O)[C@H](C)[C@@H](O[C@H]2C[C@@](C)(OC)[C@@H](O)[C@H](C)O2)[C@H](C)[C@@H](O[C@@H]2O[C@H](C)C[C@H](N(C)C)[C@H]2O)[C@](C)(O)C[C@@H](C)CN(C)[C@H](C)[C@@H](O)[C@]1(C)O [azithromycin]; 0.63

## Input Which CNP (Rf, control NP plate) is listed for CCOC(=O)[C@H](CCc1ccccc1)N[C@@H](C)C(=O)N1CCC[C@H]1C(=O)O [enalapril] ?
## Output 0.33

## Input # CNP (Rf, control NP plate) lookup, item CCC(C)(C)C(=O)O[C@H]1C[C@@H](C)C=C2C=C[C@H](C)[C@H](CC[C@@H]3C[C@@H](O)CC(=O)O3)[C@H]21 [simvastatin]
## Output 0.19

## Input Need CNP (Rf, control NP plate), item CCCC(CCC)C(=O)O [valproic acid]
## Output 0.69

## Input Need CNP (Rf, control NP plate), item CC(=O)S[C@@H]1CC2=CC(=O)CC[C@]2(C)[C@H]2CC[C@@]3(C)[C@@H](CC[C@@]34CCC(=O)O4)[C@H]12 [spironolactone]
## Output 0.98

## Input Tell me the measured CNP (Rf, control NP plate) of OCCN1CCN(CCC=C2c3ccccc3Sc3ccc(C(F)(F)F)cc32)CC1 [flupenthixol] , please.
## Output 0.51

* * *

Assay: NP TLC on non-impregnated control plates
Format: physicochemical
Details: Table S8, external group
// CNP (Rf value from the non-impregnated NP plate, control) lookup, one value per entry
The answer should be a number; do not append a unit.

Here are 5 compounds together with their reported answers.
CO[C@H]1/C=C/O[C@@]2(C)Oc3c(C)c(O)c4c(O)c(c(/C=N/N5CCN(C)CC5)c(O)c4c3C2=O)NC(=O)/C(C)=C\C=C\[C@H](C)[C@H](O)[C@@H](C)[C@@H](O)[C@@H](C)[C@H](OC(C)=O)[C@@H]1C; 0.73
CCC1(c2ccccc2)C(=O)NCNC1=O; 0.90
CN(C)CCC=C1c2ccccc2COc2ccccc21 [doxepin]; 0.30
CCC[C@@H]1C[C@@H](C(=O)N[C@@H]([C@H]2O[C@H](SC)[C@H](O)[C@@H](O)[C@H]2O)[C@@H](C)O)N(C)C1; 0.91
COCCCC/C(=N\OCCN)c1ccc(C(F)(F)F)cc1; 0.34

Would you kindly look at the next entry?
## Input Given the compound CC1COc2c(N3CCN(C)CC3)c(F)cc3c(=O)c(C(=O)O)cn1c23 (stereo not drawn) , what is its reported CNP (Rf value from the non-impregnated NP plate, control)?
## Output 0.24

* * *

Target: bovine serum albumin (BSA) (Bos taurus)
Construct: purchased Sigma Aldrich
Sequence (P02769 25-607): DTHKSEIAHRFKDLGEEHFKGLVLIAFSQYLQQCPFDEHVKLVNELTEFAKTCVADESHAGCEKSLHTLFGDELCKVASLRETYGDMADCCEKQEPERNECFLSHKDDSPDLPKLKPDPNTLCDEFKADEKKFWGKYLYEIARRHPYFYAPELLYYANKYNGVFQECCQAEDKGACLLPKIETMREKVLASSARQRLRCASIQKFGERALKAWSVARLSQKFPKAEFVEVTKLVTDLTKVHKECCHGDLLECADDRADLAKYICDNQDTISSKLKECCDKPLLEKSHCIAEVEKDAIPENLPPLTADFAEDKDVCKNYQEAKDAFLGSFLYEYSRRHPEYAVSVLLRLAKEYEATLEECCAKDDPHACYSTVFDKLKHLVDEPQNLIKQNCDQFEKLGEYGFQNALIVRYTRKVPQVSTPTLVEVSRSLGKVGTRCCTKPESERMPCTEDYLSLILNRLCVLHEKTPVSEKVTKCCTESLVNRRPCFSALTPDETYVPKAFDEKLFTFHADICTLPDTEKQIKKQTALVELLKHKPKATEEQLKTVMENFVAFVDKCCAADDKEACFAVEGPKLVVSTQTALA
Experiment: NP TLC on plates impregnated with bovine serum albumin
Format: binding
Settings: Table S3, NP plate impregnated with 2 mg/mL BSA; pH 7.4 mobile phase
attribute_measured: NP (Rf, BSA-impregnated NP plate)
No unit in the answer, please; the number alone is enough.

COc1ccnc(C[S+]([O-])c2nc3ccc(OC(F)F)cc3[nH]2)c1OC (stereo not shown) [pantoprazole]; 0.92
OCCOCCN1CCN(C(c2ccccc2)c2ccc(Cl)cc2)CC1 (stereo not shown) [hydroxyzine]; 0.55
OC(CCN1CCCCC1)(c1ccccc1)C1CC2C=CC1C2 (stereo not shown) [biperiden]; 0.65
C[C@]12CC[C@@H]3c4ccc(OC(=O)c5ccccc5)cc4CC[C@H]3[C@@H]1CC[C@@H]2O [estradiol benzoate]; 0.98
CC(CN1c2ccccc2Sc2ccccc21)N(C)C (stereo not shown) [promethazine]; 0.42
NC(=O)N1c2ccccc2C=Cc2ccccc21 [carbamazepine]; 0.95
CCOc1ccc(/C=C2\NCCc3cc(OCC)c(OCC)cc32)cc1OCC [drotaverine]; 0.59
CC[C@H]1OC(=O)[C@H](C)[C@@H](O[C@H]2C[C@@](C)(OC)[C@@H](O)[C@H](C)O2)[C@H](C)[C@@H](O[C@@H]2O[C@H](C)C[C@H](N(C)C)[C@H]2O)[C@](C)(O)C[C@@H](C)/C(=N\OCOCCOC)[C@H](C)[C@@H](O)[C@]1(C)O [roxitromicin]; 0.92

## Input Recorded NP (Rf, BSA-impregnated NP plate) for OCCN1CCN(CCC=C2c3ccccc3Sc3ccc(C(F)(F)F)cc32)CC1 [flupenthixol] with bovine serum albumin (BSA) (Bos taurus), please?
## Output 0.52

## Input Observed NP (Rf, BSA-impregnated NP plate) on bovine serum albumin (BSA) (Bos taurus) for NC(N)=Nc1nc(CSCCC(N)=NS(N)(=O)=O)cs1 [famotidine] , please.
## Output 0.71

## Input Could you share what NP (Rf, BSA-impregnated NP plate) was measured for CC(C)NCC(O)COc1cccc2[nH]ccc12 (stereo not shown) [pindolol] , tested on bovine serum albumin (BSA) (Bos taurus)?
## Output 0.52

## Input Tell me reported NP (Rf, BSA-impregnated NP plate) for CC(=O)[C@H]1CC[C@H]2[C@@H]3CCC4=CC(=O)CC[C@]4(C)[C@H]3CC[C@]12C [progesterone] , tested with bovine serum albumin (BSA) (Bos taurus).
## Output 0.96

## Input For the record CN(C)CCc1c[nH]c2ccc(Cn3cncn3)cc12 [rizatriptan] , what value of NP (Rf, BSA-impregnated NP plate) is listed for bovine serum albumin (BSA) (Bos taurus)?
## Output 0.20

## Input Find NP (Rf, BSA-impregnated NP plate) (bovine serum albumin (BSA) (Bos taurus)) for the entry CN(C)CCCN1c2ccccc2Sc2ccc(Cl)cc21 [chlorpromazine]
## Output 0.43

## Input Recorded NP (Rf, BSA-impregnated NP plate) for CN(C)CCOC(c1ccccc1)c1ccccc1 [diphenhydramin] with bovine serum albumin (BSA) (Bos taurus), please?
## Output 0.33
